# targetEntity: Growth hormone secretagogue receptor type 1 (Homo sapiens)
# Sequence (Q92847 whole entry): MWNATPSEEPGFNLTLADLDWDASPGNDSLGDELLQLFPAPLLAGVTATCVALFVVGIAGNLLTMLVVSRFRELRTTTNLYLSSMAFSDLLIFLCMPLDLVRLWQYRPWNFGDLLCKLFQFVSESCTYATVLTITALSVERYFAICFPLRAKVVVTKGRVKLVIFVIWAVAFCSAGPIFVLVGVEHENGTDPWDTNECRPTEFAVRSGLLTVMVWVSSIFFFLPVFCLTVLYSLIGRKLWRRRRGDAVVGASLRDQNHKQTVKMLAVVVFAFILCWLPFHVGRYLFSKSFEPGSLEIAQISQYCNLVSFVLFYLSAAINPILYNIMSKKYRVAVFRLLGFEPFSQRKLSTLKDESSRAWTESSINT
# testDescription: Displacement of [125I-His9]-ghrelin from human GRLN receptor by radioligand binding assay
Entries and their Ki
propertyLabel: Ki (nM)

# lineNotation, unitSpec, inequalitySymbol, assayValue
measured = [
    ("CC[C@H](C)[C@@H]1NCCOc2ccccc2CCCNC(=O)[C@@H](Cc2ccccc2)NC(=O)[C@@H](C)N(C)C1=O", "nM", "=", 6.4),
    ("CCC[C@@H]1NCCOc2ccccc2CCCNC(=O)[C@@H](Cc2ccc(O)cc2)NC(=O)CN(C)C1=O", "nM", "=", 120),
    ("CCC[C@H](NCCOc1ccccc1/C=C/CNC(C)=O)C(=O)N(C)CC(=O)N[C@H](Cc1ccccc1)C(N)=O", "nM", ">", 10000),
]
